# Test protocol: Pharmacokinetics of tucaresol after a single dose in healthy subjects
# Conditions used: human, plasma, 2800 mg, tmax; single dose 2800 mg; single subjects
Result type: Tmax (h)

In [3]: df
Out[3]:
                 structure_notation  result_type  scale_unit  reading
0  O=Cc1c(O)cccc1OCc1ccc(C(=O)O)cc1         Tmax           h        6

###

# Test protocol: Pharmacokinetics of tucaresol after a single dose in healthy subjects
# Conditions used: human, plasma, 1200 mg, tmax; single dose 1200 mg; single subjects
Result type: Tmax (h)

>>> print(df.to_string())
                 structure_notation  reading
0  O=Cc1c(O)cccc1OCc1ccc(C(=O)O)cc1        8

###

# Test protocol: Pharmacokinetics of tucaresol after a single dose in healthy subjects
# Conditions used: human, plasma, 3600 mg, t1/2,z, Mean; single dose 3600 mg
Result type: half-life (days)

                 structure_notation  result_type  reading
0  O=Cc1c(O)cccc1OCc1ccc(C(=O)O)cc1    half-life       12

###

# Test protocol: Pharmacokinetics of tucaresol after a single dose in healthy subjects
# Conditions used: human, plasma, 3600 mg, Cmax, Mean; single dose 3600 mg
Result type: Cmax (µg/mL)

>>> print(df.to_string())
                 structure_notation  reading
0  O=Cc1c(O)cccc1OCc1ccc(C(=O)O)cc1     95.8

###

# Test protocol: Pharmacokinetics of tucaresol after a single dose in healthy subjects
# Conditions used: human, plasma, 2800 mg, t1/2,z; single dose 2800 mg; single subjects
Result type: half-life (h)

                 structure_notation  result_type  scale_unit  reading
0  O=Cc1c(O)cccc1OCc1ccc(C(=O)O)cc1    half-life           h      232

###

# Test protocol: Intravenous and oral dosing pharmacokinetic screen, plasma concentration by LC/MS/MS
# Design: species or system C57BL/6 mice
# Conditions used: male, C57BL/6, mouse, in vivo, iv, 3 mg/kg, B02 concentration, Mean
Result type: concentration at 0.25 h (ng/mL)

>>> print(df.to_string())
                                   compound  reading
0  CO/N=C/c1c(O)cccc1OCc1ccc(C(=O)O)cc1 [Compound B02]     1340

###

# Test protocol: Intravenous and oral dosing pharmacokinetic screen, plasma concentration by LC/MS/MS
# Set-up: species or system C57BL/6 mice
# Conditions used: male, C57BL/6, mouse, in vivo, iv, 3 mg/kg, Tucaresol concentration, Mean
Result type: concentration at 0.5 h (µg/mL)

In [3]: df
Out[3]:
                 structure_notation             result_type  reading
0  O=Cc1c(O)cccc1OCc1ccc(C(=O)O)cc1  concentration at 0.5 h    0.985

###

# Test protocol: Pharmacokinetics of tucaresol after a single dose in healthy subjects
# Conditions used: human, plasma, 3600 mg, t1/2,z; single dose 3600 mg; single subjects
Result type: half-life (days)

In [3]: df
Out[3]:
                 structure_notation  reading
0  O=Cc1c(O)cccc1OCc1ccc(C(=O)O)cc1     12.1

###

# Test protocol: Intravenous and oral dosing pharmacokinetic screen, plasma concentration by LC/MS/MS
# Parameters: species or system C57BL/6 mice
# Conditions used: male, C57BL/6, mouse, in vivo, iv, 3 mg/kg, Compound C02 concentration
Result type: concentration at 0.083 h (ng/mL)

>>> df
                                   compound               result_type  reading
0  O=Cc1c(OCc2ccc(C(=O)O)cc2)cccc1OC1O[C@H](CO)[C@@H](O)[C@H](O)[C@H]1O (stereo partly shown) [Compound C02]  concentration at 0.083 h     1830

###

# Test protocol: Intravenous and oral dosing pharmacokinetic screen, plasma concentration by LC/MS/MS
# Set-up: species or system C57BL/6 mice
# Conditions used: male, C57BL/6, mouse, in vivo, iv, 3 mg/kg, Tucaresol concentration
Result type: concentration at 8 h (ng/mL)

In [3]: df
Out[3]:
                 structure_notation  scale_unit  reading
0  O=Cc1c(O)cccc1OCc1ccc(C(=O)O)cc1       ng/mL     73.6

###

# Test protocol: Intravenous and oral dosing pharmacokinetic screen, plasma concentration by LC/MS/MS
# Set-up: species or system C57BL/6 mice
# Conditions used: male, C57BL/6, mouse, in vivo, po, 10 mg/kg, B02 concentration, Mean
Result type: concentration at 0.25 h (ng/mL)

                     structure_notation  scale_unit  reading
0  CO/N=C/c1c(O)cccc1OCc1ccc(C(=O)O)cc1       ng/mL     4260

###

# Test protocol: Pharmacokinetics of tucaresol after a single dose in healthy subjects
# Conditions used: human, plasma, 2000 mg, tmax, Mean; single dose 2000 mg
Result type: Tmax

>>> df
                                   compound  result_type  reading
0  O=Cc1c(O)cccc1OCc1ccc(C(=O)O)cc1 [Tucaresol]         Tmax    5.5 h

###

# Test protocol: Intravenous and oral dosing pharmacokinetic screen, plasma concentration by LC/MS/MS
# Design: species or system C57BL/6 mice
# Conditions used: male, C57BL/6, mouse, in vivo, iv, 3 mg/kg, B02 concentration
Result type: concentration at 4 h

>>> df
                                   molecule     reading
0  CO/N=C/c1c(O)cccc1OCc1ccc(C(=O)O)cc1 [Compound B02]  43.4 ng/mL

###

# Test protocol: Intravenous and oral dosing pharmacokinetic screen, plasma concentration by LC/MS/MS
# Parameters: species or system C57BL/6 mice
# Conditions used: male, C57BL/6, mouse, in vivo, iv, 3 mg/kg, Tucaresol concentration, Mean
Result type: concentration at 0.083 h (ng/mL)

>>> df
                 structure_notation  scale_unit  reading
0  O=Cc1c(O)cccc1OCc1ccc(C(=O)O)cc1       ng/mL     1890

###

# Test protocol: Intravenous and oral dosing pharmacokinetic screen, plasma concentration by LC/MS/MS
# Design: species or system C57BL/6 mice
# Conditions used: male, C57BL/6, mouse, in vivo, po, 10 mg/kg, Tucaresol concentration, Mean
# Procedure: Tucaresol, Compound B02, Compound C01, Compound C02-1, and Compound C02 were dosed once, by IV bolus (3 mg/kg in 20% hydroxyprophyl-13-cyclodextrin with 1 eq NaOH) or PO (10 mg/kg in 1% carboxymethylcellulose/0.1% tween-80 in water), to non-fasted male C57BL/6 mice. […] The plasma concentration of the dosed tucaresol or compound were measured by LC/MS/MS (I-CMS-8060 instrument for MS). PK parameters were then calculated with WinNonlin 6.1. […]
Result type: concentration at 2 h (ng/mL)

>>> print(df.to_string())
                                   molecule  reading
0  O=Cc1c(O)cccc1OCc1ccc(C(=O)O)cc1 [Tucaresol]      881

###

# Test protocol: Intravenous and oral dosing pharmacokinetic screen, plasma concentration by LC/MS/MS
# Design: species or system C57BL/6 mice
# Conditions used: male, C57BL/6, mouse, in vivo, iv, 3 mg/kg, Compound C02 concentration, Mean
Result type: concentration at 0.25 h (ng/mL)

>>> print(df.to_string())
                                   compound  scale_unit  reading
0  O=Cc1c(OCc2ccc(C(=O)O)cc2)cccc1OC1O[C@H](CO)[C@@H](O)[C@H](O)[C@H]1O (stereo partly shown) [Compound C02]       ng/mL      578

###

# Test protocol: Intravenous and oral dosing pharmacokinetic screen, plasma concentration by LC/MS/MS
# Parameters: species or system C57BL/6 mice
# Conditions used: male, C57BL/6, mouse, in vivo, po, 10 mg/kg, B02 concentration, Mean
Result type: concentration at 24 h (ng/mL)

>>> df
                     structure_notation  reading
0  CO/N=C/c1c(O)cccc1OCc1ccc(C(=O)O)cc1     10.5

###

# Test protocol: Intravenous and oral dosing pharmacokinetic screen, plasma concentration by LC/MS/MS
# Design: species or system C57BL/6 mice
# Conditions used: male, C57BL/6, mouse, in vivo, iv, 3 mg/kg, Compound C02 concentration, Mean
Result type: concentration at 0.5 h (ng/mL)

                                   molecule             result_type  scale_unit  reading
0  O=Cc1c(OCc2ccc(C(=O)O)cc2)cccc1OC1O[C@H](CO)[C@@H](O)[C@H](O)[C@H]1O (stereo partly shown) [Compound C02]  concentration at 0.5 h       ng/mL      220
